- TEST DESCRIPTION: Plasma concentrations of tamoxifen and its metabolites by LC-MS/MS in breast cancer patients on adjuvant tamoxifen
- Format: in vivo, human
- PARTICULARS: 81 Ethiopian breast cancer patients, tamoxifen 20 mg/day for at least three months
Below is a list of entries, each paired with its recorded Plasma concentration (median + IQR) value.

Below, each entry is followed by its recorded Plasma concentration (median + IQR) result.
CC/C(=C(\c1ccc(O)cc1)c1ccc(OCCN(C)C)cc1)c1ccccc1 [4-Hydroxy-tamoxifen, 4-hydroxy-tamoxifen]	3.04 (2.15–4.0) ng/mL
CC/C(=C(\c1ccccc1)c1ccc(OCCNC)cc1)c1ccccc1	257 (185.5–343) ng/mL
CC/C(=C(\c1ccccc1)c1ccc(OCCN(C)C)cc1)c1ccccc1	138 (105–200.5) ng/mL

Moving on to the next compound.
Request: // query Plasma concentration (median + IQR) value for entry CC/C(=C(\c1ccc(O)cc1)c1ccc(OCCNC)cc1)c1ccccc1 [Z-Endoxifen, (Z)-endoxifen]
Result: 7.94 (4.68–13.75) ng/mL
